# Tested on: HOP-62 NSCLC
# Assay Details: NCI-60 one-dose screen, 48 h (100 = growth as untreated, 0 = no growth, -100 = all killed)
# Condition Parameters: 10 µM
The panel holds about 83,000 compounds, 20% with a hit somewhere; the sample as a whole holds those more often.
Recorded measurements of growth, one per entry
Metric Name: growth (%)

- Compound: "Nc1nccc(Nc2ccccc2)n1"
  Readout Value: 102
- Compound: "Cc1cccc2c(NCCN(C)C)c3cccc(C(=O)NCCN(C)C)c3nc12"
  Readout Value: 4.88
- Compound: "COc1ccc(C2CC(c3ccc(N(C)C)cc3)=NN2c2ccc(S(N)(=O)=O)cc2)cc1 (stereo unspecified)"
  Readout Value: 78.2
- Compound: "CCCCCCCCCCCCCCCCN(C(C)c1ccccc1)S(=O)(=O)c1ccc(OC)c(N)c1 (stereo unspecified)"
  Readout Value: 117
- Compound: "Clc1ccc(Sc2nc(NC3CC3)nc(Sc3ccc(Cl)cc3)n2)cc1"
  Readout Value: 102
- Compound: "Cc1ccc(-c2n[nH]c(=O)c3noc(-c4ccc(C)cc4)c23)cc1"
  Readout Value: 29.2
- Compound: "COc1cccc(C(=O)Nc2ccc(CN3CCc4nc5cc(OC)c(OC)cc5cc43)cc2)c1"
  Readout Value: 81
- Compound: "c1ccc(CSc2nnc3c4c5c(sc4nc(-c4cccnc4)n23)CCCCCC5)cc1"
  Readout Value: 91.3
- Compound: "O=C1c2ccc3c4c(ccc(c24)C(=O)N1CCNCc1ccccc1)C(=O)N(CCNCc1ccccc1)C3=O"
  Readout Value: 95.6
- Compound: "CS(=O)(=O)Nc1ccc(Nc2c3ccccc3nc3cc([N+](=O)[O-])ccc23)cc1"
  Readout Value: 19.2
- Compound: "COc1ccc(-c2nc(-c3nc4ccc(Cl)cc4[nH]3)c3ccccn23)cc1"
  Readout Value: -77.9
- Compound: "COc1cc(C(=C2O[C@@H]([C@H]3COC(C)(C)O3)[C@H]3OC(C)(C)O[C@@H]23)c2cc(OC)c(OC)c(OC)c2)cc(OC)c1OC"
  Readout Value: 104
- Compound: "CN(C)c1ccc(/C=C/C=N/NC(=O)c2cc(O)c(O)c(O)c2)cc1"
  Readout Value: 103
- Compound: "c1ccc2c(-c3nc(N4CCOCC4)c4c5c(sc4n3)CCCCCC5)cccc2c1"
  Readout Value: 101
- Compound: "Cc1nc2ccc(CN(C)c3ccc(C(=O)N[C@@H](CCC(=O)O)C(=O)O)s3)cc2c(=O)[nH]1"
  Readout Value: 28.6
- Compound: "O=C1/C(=C\\c2ccccc2)CN(C(=O)c2ccccc2)C/C1=C\\c1ccccc1"
  Readout Value: 37.1
- Compound: "O=C(CCCCC(=O)Nc1ccc2c(c1)/C(=C/c1ccc[nH]1)C(=O)N2)NO"
  Readout Value: 94.3
- Compound: "Cc1cn(C2CCCCO2)c(=O)nc1NO (stereo unspecified)"
  Readout Value: 110
- Compound: "CC1CN(Cc2ccccc2)C(=O)NC1=O (stereo unspecified)"
  Readout Value: 105
- Compound: "CCOC(=O)N1C=CC2C=CC1C1C=CC=CC2N1C(=O)OCC (stereo unspecified)"
  Readout Value: 106
- Compound: "Cc1ccc(CC#N)cc1C"
  Readout Value: 101
